Values were extracted from ChEMBL document CHEMBL1144948.

# Test Protocol: Half life period as average of four rats at each dose of 5 mg/kg intravenous and 20 mg/kg peroral administration
# Assay type: ADME, organism-based
# Condition Summary: rat, in vivo
Experimental Readout: half-life

Reported half-life, compound `O=c1cc(-c2ccc3c(c2)ncn3-c2ccccc2)ccn1CCCN1CCCCC1` : ____
2.9 h

---

# Test Protocol: CL (clearance) of compound was determined after intravenous administration in average of two dogs at a dose of 1 mg/kg
# Assay type: ADME, organism-based, Canis lupus familiaris
# Set-up: dose 1 mg/kg, route intravenous
# Condition Summary: dog, in vivo
Experimental Readout: clearance (mL/min/kg)
Give the quantity in mL/min/kg, number only.

c1ccc(-n2cnc3cc(-c4ccc(OCCN5CCCCC5)cc4)ccc32)cc1 : 4.6

API: the following record is the query input.
Reported clearance, compound `O=c1cc(-c2ccc3c(c2)ncn3-c2ccccc2)ccn1CCCN1CCCCC1` : ____
8.9
